# Test system: RPMI-8226 leukemia
# Run description: NCI tumour cell line growth inhibition, 48 h
# reported TGI; entries follow
Please state the figure in µM; there is no need to write the unit.

{"columns": ["Compound", "TGI [µM]"],
 "data": [
  ["O=C1NC2c3c(I)sc(I)c3C(=O)C2O1 (stereo not given)", 34.1]
]}

In the following, a different compound is considered.
stdin: # get_value(readout='TGI', item= "CCOC(=O)c1cc(C(=O)c2ccc(OC)cc2)n2ccc(/C=C/c3cc[n+](CC(=O)c4ccc(OC)cc4)cc3)cc12" )
stdout: 4.85

* * *

# System: HT29 colon
# Run description: NCI tumour cell line growth inhibition, 48 h
Quantity: TGI (nM)
Please state the figure in nM; there is no need to write the unit.

{"columns": ["Mol", "TGI [nM]"],
 "data": [
  ["COc1ccc2c(c1)Cc1c(NCCN(C)C)ccc(C(=O)NCCCN(C)CCCNC(=O)c3ccc(NCCN(C)C)c4c3Nc3ccc(OC)cc3C4)c1N2", 566]
]}

stdin: # get_value(readout='TGI', item= "CC[C@H](C)[C@H](NC(=O)[C@H]1CCCCN1C)C(=O)N(C)[C@H](C[C@@H](OC(C)=O)c1cccc(C(=O)N[C@@H](Cc2ccccc2)C[C@H](C)C(=O)OC)n1)C(C)C" )
stdout: 42.1
